Cited source for all entries: paper PMC4336329

Biological target: human ether-à-go-go-related gene (hERG) potassium channel (human, UniProt Q12809)
Sequence (Q12809 whole entry, looked up): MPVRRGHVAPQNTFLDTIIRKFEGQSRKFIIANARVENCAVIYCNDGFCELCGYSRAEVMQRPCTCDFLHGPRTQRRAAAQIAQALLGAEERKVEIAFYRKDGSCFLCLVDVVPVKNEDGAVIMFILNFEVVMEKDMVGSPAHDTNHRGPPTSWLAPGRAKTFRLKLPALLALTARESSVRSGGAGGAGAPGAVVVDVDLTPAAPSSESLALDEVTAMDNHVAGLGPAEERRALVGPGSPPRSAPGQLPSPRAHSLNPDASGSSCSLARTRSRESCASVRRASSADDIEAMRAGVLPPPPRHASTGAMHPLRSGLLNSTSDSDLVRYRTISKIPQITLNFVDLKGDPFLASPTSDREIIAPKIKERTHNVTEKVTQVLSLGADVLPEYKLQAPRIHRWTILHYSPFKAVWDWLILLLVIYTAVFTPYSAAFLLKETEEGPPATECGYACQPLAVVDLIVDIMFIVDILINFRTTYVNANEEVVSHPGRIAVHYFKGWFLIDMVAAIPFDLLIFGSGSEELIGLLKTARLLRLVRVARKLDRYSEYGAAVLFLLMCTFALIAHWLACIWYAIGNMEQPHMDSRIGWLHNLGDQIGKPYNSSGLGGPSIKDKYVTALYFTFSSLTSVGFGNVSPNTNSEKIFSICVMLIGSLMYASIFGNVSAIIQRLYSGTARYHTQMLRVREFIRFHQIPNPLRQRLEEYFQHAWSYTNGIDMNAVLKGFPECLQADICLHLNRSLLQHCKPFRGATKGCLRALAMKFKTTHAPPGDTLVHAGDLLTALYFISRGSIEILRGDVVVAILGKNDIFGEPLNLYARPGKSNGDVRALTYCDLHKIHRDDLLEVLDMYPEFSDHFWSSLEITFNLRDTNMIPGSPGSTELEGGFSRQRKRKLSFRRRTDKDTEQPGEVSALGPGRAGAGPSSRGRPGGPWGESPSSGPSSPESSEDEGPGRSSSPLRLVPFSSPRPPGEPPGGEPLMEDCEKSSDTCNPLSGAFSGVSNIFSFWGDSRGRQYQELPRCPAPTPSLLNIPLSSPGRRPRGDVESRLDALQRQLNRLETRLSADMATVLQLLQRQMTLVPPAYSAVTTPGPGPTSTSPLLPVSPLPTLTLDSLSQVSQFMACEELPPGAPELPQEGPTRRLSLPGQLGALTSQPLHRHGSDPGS
Assay: primary screen, population patch clamp on CHO cells stably expressing hERG; higher = less effect of the substance
In all, about 310,000 compounds went through this assay and about 2,200 (0.71%) showed an effect of 50% or more. The effect is printed as a negative number. This excerpt belongs to a sample that is enriched for strong results.
measurementType: hERG current change (%, negative = inhibition) at 1uM (%)
Quick note: give the figure in %, leave out the unit.

The compound listed as COc1cc(OC)c(C2=NOC(C(=O)N3CCN(C(=O)c4ccco4)CC3)C2)cc1Cl (stereo not shown) has a reported hERG current change (%, negative = inhibition) at 1uM of -12.8

The compound listed as `Cc1c(C(=O)NCCCN2CCOCC2)sc2nc(-c3ccc(F)cc3)cn12` has a reported hERG current change (%, negative = inhibition) at 1uM of -16.8

The compound listed as O=C(c1ccco1)N1CCN(C(=O)C2CC(c3ccccc3F)=NO2)CC1 (stereo not shown) has a reported hERG current change (%, negative = inhibition) at 1uM of 3.75

The compound listed as `CSc1ccc(/C=C(/NC(=O)c2ccccc2)C(=O)NCCCn2ccnc2)cc1` has a reported hERG current change (%, negative = inhibition) at 1uM of -15.6

The compound listed as O=C(c1ccco1)N1CCN(C(=O)C2CC(c3ccc(F)cc3)=NO2)CC1 (stereo not shown) has a reported hERG current change (%, negative = inhibition) at 1uM of -59.7

The compound listed as `CCOC(=O)N1CCN(C(=O)c2sc3nc(-c4ccc(F)cc4)cn3c2C)CC1` has a reported hERG current change (%, negative = inhibition) at 1uM of -22.3

The compound listed as `Cc1ccc(C(=O)N/C(=C/c2ccccc2F)C(=O)NCCCn2ccnc2)cc1` has a reported hERG current change (%, negative = inhibition) at 1uM of -22.5

The compound listed as `CCN(CC)CCCNC(=O)c1sc2nc(-c3ccc(F)cc3)cn2c1C` has a reported hERG current change (%, negative = inhibition) at 1uM of -55.5

The compound listed as CC1CCCC(C)N1C(=O)COC(=O)CCC1CCCC1 (stereo not shown) has a reported hERG current change (%, negative = inhibition) at 1uM of 9.29

The compound listed as COc1cccc(C2=NOC(C(=O)N3CCN(C(=O)c4ccco4)CC3)C2)c1 (stereo not shown) has a reported hERG current change (%, negative = inhibition) at 1uM of -16.3

* * *

Molecular target: human ether-à-go-go-related gene (hERG) potassium channel (human, UniProt Q12809)
Assay: primary screen, population patch clamp on CHO cells stably expressing hERG; higher = less effect of the substance
In all, about 310,000 compounds went through this assay and about 2,200 (0.71%) showed an effect of 50% or more. The effect is printed as a negative number. The sample holds strong results, similar compounds and a random draw of the others, so the mix is not that of the screen.
Recorded hERG current change (%, negative = inhibition) at 1uM, one value per entry.
Quick note: give the figure in %, leave out the unit.

Known results for compounds:
[[record]]
compound = "COc1cc(NC(=O)CN2CCN(Cc3ccc4c(c3)OCO4)CC2)cc(OC)c1.O=C(O)C(=O)O"
testedsystem = "human ether-à-go-go-related gene (hERG) potassium channel (human, UniProt Q12809)"
reportedvalue = -9.16

[[record]]
compound = "COC(=O)c1[nH]c2ccc(C)cc2c1NC(=O)CCN1CCN(Cc2ccc3c(c2)OCO3)CC1"
testedsystem = "human ether-à-go-go-related gene (hERG) potassium channel (human, UniProt Q12809)"
reportedvalue = -33

[[record]]
compound = "O=C(CN1CCN(C(=O)C2COc3ccccc3O2)CC1)Nc1ccc(F)cc1 (stereo not shown)"
testedsystem = "human ether-à-go-go-related gene (hERG) potassium channel (human, UniProt Q12809)"
reportedvalue = -63.5

[[record]]
compound = "O=C(CSc1nnc(-c2ccco2)n1Cc1ccccc1)NC(=O)NCc1ccco1"
testedsystem = "human ether-à-go-go-related gene (hERG) potassium channel (human, UniProt Q12809)"
reportedvalue = -15.6

[[record]]
compound = "CC(=O)c1ccc(NC(=O)COC(=O)c2c[nH]c3ccccc23)cc1"
testedsystem = "human ether-à-go-go-related gene (hERG) potassium channel (human, UniProt Q12809)"
reportedvalue = 14.4

[[record]]
compound = "COC(=O)c1[nH]c2ccc(Br)cc2c1NC(=O)CN1CCCc2ccccc21"
testedsystem = "human ether-à-go-go-related gene (hERG) potassium channel (human, UniProt Q12809)"
reportedvalue = 8.7

[[record]]
compound = "Cc1ccc(OCC(O)CNC2CCCC2)cc1C.Cl (stereo not shown)"
testedsystem = "human ether-à-go-go-related gene (hERG) potassium channel (human, UniProt Q12809)"
reportedvalue = 8.86

[[record]]
compound = "CC(=O)O.Cc1nc(NCCc2ccc(F)cc2)c(C#N)c(C)c1[N+](=O)[O-]"
testedsystem = "human ether-à-go-go-related gene (hERG) potassium channel (human, UniProt Q12809)"
reportedvalue = -41.9


Please look at the following compound next.
The compound listed as `CCN1CCN(C(=O)/C=C/c2ccc(OC)c(OC)c2)CC1` has a reported hERG current change (%, negative = inhibition) at 1uM of 14.8

* * *

Biological target: human ether-à-go-go-related gene (hERG) potassium channel (human, UniProt Q12809)
Test: primary screen, population patch clamp on CHO cells stably expressing hERG; higher = less effect of the substance
Among all 310,000 compounds or so, about 2,200 (0.71%) showed an effect of 50% or more. The effect is printed as a negative number. This is one part of a sample in which strong results are shown more often than they occur.
measurementType: hERG current change (%, negative = inhibition) at 1uM (%)
Quick note: give the figure in %, leave out the unit.

[[record]]
compound = "COc1ccc(C2CC(=O)C(C=NCCN3CCN(C(C)=O)CC3)=C(O)C2)cc1 (centres unmarked)"
reportedvalue = 0.835

[[record]]
compound = "O=C1NC(C(F)(F)F)(C(F)(F)F)N=C2SC=CN12"
reportedvalue = 1.69

[[record]]
compound = "CCCCCC(=O)N1CCN(CCN=CC2=C(O)CC(c3ccc(OC)cc3)CC2=O)CC1 (centres unmarked)"
reportedvalue = -54.5

[[record]]
compound = "O=C(c1cc(COc2ccc3ncccc3c2)on1)N1CCCC1"
reportedvalue = 13.5

[[record]]
compound = "CC(=O)N1CCOc2ccc(S(=O)(=O)Nc3ccc(C)cn3)cc21"
reportedvalue = 4.68


Please look at the following compound next.
The compound listed as COc1ccc(C(C(O)C(=O)c2c[nH]c3ccccc23)N2CCN(c3ccccc3)CC2)cc1 (centres unmarked) has a reported hERG current change (%, negative = inhibition) at 1uM of 4.75

* * *

Biological target: human ether-à-go-go-related gene (hERG) potassium channel (human, UniProt Q12809)
Test: primary screen, population patch clamp on CHO cells stably expressing hERG; higher = less effect of the substance
The whole screen tested about 310,000 compounds, of which about 2,200 (0.71%) showed an effect of 50% or more. The effect is printed as a negative number. This is one part of a sample in which strong results are shown more often than they occur.
measurementType: hERG current change (%, negative = inhibition) at 1uM
Answer as a quantity: numeral, then unit.

[[record]]
compound = "CCN1CCC(=NNC(=O)CC23CC4CC(CC(C4)C2)C3)CC1"
testedsystem = "human ether-à-go-go-related gene (hERG) potassium channel (human, UniProt Q12809)"
reportedvalue = "11.5%"

[[record]]
compound = "O=C(CN1CCN(CC(=O)Nc2ccc(OCc3ccccc3)cc2)CC1)Nc1ccc(F)cc1"
testedsystem = "human ether-à-go-go-related gene (hERG) potassium channel (human, UniProt Q12809)"
reportedvalue = "-81.5%"

[[record]]
compound = "Cc1ccc(Cl)cc1N1CCN(C(=O)CNC(=O)c2ccc(Br)o2)CC1"
testedsystem = "human ether-à-go-go-related gene (hERG) potassium channel (human, UniProt Q12809)"
reportedvalue = "4.64%"

[[record]]
compound = "CCN(CC)/C(N)=N/c1nc(C)cc(C)n1"
testedsystem = "human ether-à-go-go-related gene (hERG) potassium channel (human, UniProt Q12809)"
reportedvalue = "3.23%"

[[record]]
compound = "C=CCn1c(=N)c(C(=O)NCCCOC)cc2c(=O)n3cc(C)ccc3nc21"
testedsystem = "human ether-à-go-go-related gene (hERG) potassium channel (human, UniProt Q12809)"
reportedvalue = "-41.9%"

[[record]]
compound = "CC(=O)c1c(C)[nH]c(C(=O)OCC(=O)Nc2ccc(Cl)c(S(=O)(=O)N(C)C)c2)c1C"
testedsystem = "human ether-à-go-go-related gene (hERG) potassium channel (human, UniProt Q12809)"
reportedvalue = "-2.69%"

[[record]]
compound = "O=C(COc1ccc2c3c(c(=O)oc2c1)CCCC3)N1C[C@H]2C[C@@H](C1)c1cccc(=O)n1C2"
testedsystem = "human ether-à-go-go-related gene (hERG) potassium channel (human, UniProt Q12809)"
reportedvalue = "-6%"

[[record]]
compound = "Cc1cccn2c(=O)c3cc(S(=O)(=O)c4ccccc4)c(=N)n(Cc4cccnc4)c3nc12"
testedsystem = "human ether-à-go-go-related gene (hERG) potassium channel (human, UniProt Q12809)"
reportedvalue = "-3.7%"


The compound listed as `O=C(Cn1cnc2c(NC(=O)OCc3ccccc3)ncnc21)NCc1ccccn1` has a reported hERG current change (%, negative = inhibition) at 1uM of 0.393%

The compound listed as `COc1ccc(Sc2ccc(NC(=O)c3ccccc3Cl)cc2C#N)cc1` has a reported hERG current change (%, negative = inhibition) at 1uM of 8.52%
